system: OVCAR-8 ovarian; experiment: NCI-60 one-dose screen, 48 h (100 = growth as untreated, 0 = no growth, -100 = all killed); conditions: 10 µM unless noted
About 83,000 compounds went through this panel and 20% of them were active in at least one assay; those are over-represented in the sample as a whole.
Friendly reminder: growth below 70% is Satisfied, at or above is Not satisfied.

In: hey, is growth for COc1ccc2c(ccn2C(=O)N2c3ccccc3Sc3ccccc32)c1 lower than 70% or not?
Out: Satisfied

More entries:
In: hey, is growth for CCN(CC)Cc1c(-c2cccc(OC(F)(F)F)c2)[nH]c2ccc(N3CCCC3)cc2c1=O lower than 70% or not?
Out: Not satisfied

In: Would you kindly repeat that for COc1ccc(-c2cc(-c3cccc4ccccc34)n3c(n2)nc2ccccc23)cc1OC ?
Out: Satisfied

In: Would you kindly repeat that for O=C(Nc1ccc(-c2nc(-c3cccc(O)c3)c(-c3ccnc(Br)c3)[nH]2)cc1)c1ccccc1 ?
Out: Satisfied

In: Would you kindly repeat that for C=CCn1c(SCC(=O)Nc2cccc(C(=O)/C=C/c3cc(OC)c(OC)c(OC)c3)c2)nc2ccccc2c1=O ?
Out: Satisfied

In: Would you kindly repeat that for N=c1c2cc(-c3ccccc3)oc2ncn1/N=C/c1ccccc1 ?
Out: Not satisfied

In: Would you kindly repeat that for COc1cc2c3c(n(CCCNC4CCCC4)c(=O)c2cc1OC)-c1cc2c(cc1C3=O)OCO2 ?
Out: Satisfied

In: Would you kindly repeat that for O=C(NNc1nc2cc(F)ccc2n2cncc12)c1cnccn1 ?
Out: Satisfied

In: Would you kindly repeat that for N/C(=N\c1nc2ccc([N+](=O)[O-])cc2s1)C(Cl)(Cl)Cl ?
Out: Not satisfied

In: Would you kindly repeat that for O=C(CSc1nnc(-c2ccc(Cl)cc2)n1-c1ccccc1)Nc1ccc(F)cc1 ?
Out: Not satisfied

----------
test system: SF-539 CNS; assay: NCI-60 one-dose screen, 48 h; conditions: 10 µM unless noted
This is part of a sample that, as a whole, favours compounds with a hit. Of some 83,000 tested, about 20% had one in any assay. Calls of active or inactive are those of the source. The calls were made as follows: active = growth percent below 10; inactive = the rest.
Classes to choose from: T = active, F = inactive

In: Recorded test call requested for CC(C)C(=O)Nc1ccc(-c2nc(-c3cccc(O)c3)c(-c3ccnc(Br)c3)[nH]2)cc1
Out: F

In: Would you kindly repeat that for IP(CCCSc1n(Cc2ccc3ccccc3c2)c(-c2ccccc2)c(-c2ccccc2)[n+]1Cc1ccc2ccccc2c1)(c1ccccc1)(c1ccccc1)c1ccccc1 ?
Out: F

In: Would you kindly repeat that for CS(=O)(=O)c1ccc2c(c1)c1c(n2Cc2ccc(Cl)cc2)CCCC1 ?
Out: F

In: Would you kindly repeat that for CC(=O)NC(C)(C)C(=O)N[C@@H](C)C(=O)NC(C)(C)C(=O)N[C@@H](C)C(=O)NC(C)(C)C(=O)N[C@@H](C)C(=O)N[C@@H](CCC(N)=O)C(=O)NC(C)(C)C(=O)N[C@H](C(=O)NC(C)(C)C(=O)NCC(=O)N[C@@H](CC(C)C)C(=O)NC(C)(C)C(=O)N1CCC[C@H]1C(=O)N[C@H](C(=O)NC(C)(C)C(=O)NC(C)(C)C(=O)N[C@@H](CCC(N)=O)C(=O)N[C@@H](CCC(N)=O)C(=O)N[C@H](CO)CC1CCCCC1)C(C)C)C(C)C ?
Out: F

In: Would you kindly repeat that for COc1cc(OC)c(S(N)(=O)=O)cc1C(=O)/C=C/c1ccccc1 ?
Out: T

More entries:
In: Recorded test call requested for CC(=O)C1=NN(c2ccc(Cl)cc2)C(=O)CN1C
Out: F

----------
test system: HOP-62 NSCLC; assay: NCI-60 one-dose screen, 48 h; conditions: 10 µM unless noted
The panel holds about 83,000 compounds, 20% with a hit somewhere; the sample as a whole holds those more often. Activity calls are given as the source filed them. The calls were made as follows: active = growth percent below 10; inactive = the rest.
Classes to choose from: active, inactive

In: Recorded test call requested for COc1ccc(N2C(=O)c3cc(OC)c(OC)cc3NC2SCc2ccccc2)cc1 (centres undefined)
Out: inactive

More entries:
In: Recorded test call requested for COc1ccc2c(ccn2C(=O)N2c3ccccc3Sc3ccccc32)c1
Out: inactive

----------
system: NCI-H460 lung; test: NCI-60 one-dose screen, 48 h (100 = growth as untreated, 0 = no growth, -100 = all killed); conditions: 10 µM unless noted
Compounds without any hit were thinned out: in the full panel of roughly 83,000, 20% have a hit.
Friendly reminder: growth below 60% is true, at or above is false.

In: hey, is growth for CN1C(=O)N(C)C2C1NN=c1s/c(=C\c3ccccn3)c(=O)n12 (stereo not drawn) lower than 60% or not?
Out: false

More entries:
In: hey, is growth for C[C@@H]1C[C@H]2C(=O)OCC(NC(=O)[C@H](Cc3cc(F)cc(F)c3)NC(=O)Nc3ccc(Cl)cc3F)C(=O)N3CCC[C@H]3C(=O)N3CCCC[C@H]3C(=O)N[C@@H](C)C(=O)N2C1 (stereo partly drawn) lower than 60% or not?
Out: true

In: Would you kindly repeat that for CCOC(=O)c1c(NCC(=O)Nc2cccc([N+](=O)[O-])c2)sc2c1CCCC2 ?
Out: true

In: Would you kindly repeat that for CS(=O)(=O)c1nccc(-c2c(-c3ccc(F)c(OCc4ccccc4)c3)nc3sccn23)n1 ?
Out: true

In: Would you kindly repeat that for COc1cc(C2CC(c3ccc(Nc4nc(NCCO)nc(Nc5ccc(Cl)cc5)n4)cc3)=Nc3c(N)nc(N)nc3N2)cc(OC)c1OC (stereo not drawn) ?
Out: true

In: Would you kindly repeat that for COc1cc(C2=NN(C(C)=O)C(c3ccc(N4CCOCC4)cc3)C2)cc(OC)c1OC (stereo not drawn) ?
Out: false

In: Would you kindly repeat that for C#C[C@]1(O)CC[C@H]2[C@@H]3CC=C4c5sc(Nc6cc(Cl)ccn6)nc5CC[C@]4(C)[C@H]3CC[C@@]21C ?
Out: true

In: Would you kindly repeat that for O=C1c2c(c3c4cccnc4[nH]c3c3ccc4ccccc4c23)C(=O)N1CCN1CCNCC1 ?
Out: true

----------
system: LOX IMVI melanoma; test: NCI-60 one-dose screen, 48 h (100 = growth as untreated, 0 = no growth, -100 = all killed); conditions: 10 µM unless noted
This is part of a sample that, as a whole, favours compounds with a hit. Of some 83,000 tested, about 20% had one in any assay.
Friendly reminder: growth below 80% is MET, at or above is NOT MET.

Examples from the recorded data:
In: hey, is growth for CN1CCN(c2ccc3c(c2)nc(NNC(=O)c2ccncn2)c2cccn23)CC1 lower than 80% or not?
Out: MET

In: Would you kindly repeat that for CCOC(=O)Nc1ccc(-c2nc(-c3cccc(O)c3)c(-c3ccnc(Br)c3)[nH]2)cc1 ?
Out: MET

More entries:
In: hey, is growth for CS(=O)(=O)c1nccc(-c2c(-c3ccc(F)c(OCCc4ccccc4)c3)nc3sccn23)n1 lower than 80% or not?
Out: MET

In: Would you kindly repeat that for CC1CCc2c(sc3nc(SCC(=O)N/N=C/c4ccc(Cl)cc4)n(-c4ccccc4)c(=O)c23)C1 (centres undefined) ?
Out: NOT MET

In: Would you kindly repeat that for CCOc1c(C#N)c(Nc2ccc(S(N)(=O)=O)cc2)c(C#N)c2nnc(C)n12 ?
Out: NOT MET

In: Would you kindly repeat that for CCOC(=O)c1nn(-c2ccc(C)cc2)c(=O)c2c(N)c(C#N)c(-c3ccc(OC)cc3)cc12 ?
Out: NOT MET

In: Would you kindly repeat that for Clc1ccc(-c2nc3ccc(/C(=N\N=C\c4ccccc4)c4ccccc4)cc3[nH]2)cc1 ?
Out: NOT MET

In: Would you kindly repeat that for Cn1cc(-c2nn3c(=O)cc(-c4ccccc4)nc3s2)c2cc(F)ccc21 ?
Out: MET

In: Would you kindly repeat that for CCN1C(=O)N(CC)C2SC(N/N=C/c3ccccc3)=NC21 (centres undefined) ?
Out: MET

----------
system: EKVX NSCLC; assay: NCI-60 one-dose screen, 48 h (100 = growth as untreated, 0 = no growth, -100 = all killed); conditions: 10 µM unless noted
About 83,000 compounds went through this panel and 20% of them were active in at least one assay; those are over-represented in the sample as a whole.
endpoint name: growth (%)
Express the result in % but write the number alone.

In: Item under review: CCOC(=O)c1c(NC(=O)c2cccc(C(F)(F)F)c2)sc2c(CN3CCN(C)CC3)c(O)ccc12 . Reported growth?
Out: 70.4

In: Would you kindly repeat that for COc1ccc([C@H]2[C@H](O)C(=O)N2c2cc(OC)c(OC)c(OC)c2)cc1 ?
Out: 44.4

In: Would you kindly repeat that for CC[C@]12C=CCN3CC[C@]4(C(=C(C(=O)OC)C1)Nc1cc5c(cc14)[C@@H]1[C@H](O5)[C@@H](O)[C@@]4(CC)CC(C(=O)OC)=C5Nc6cc(OC)ccc6[C@@]56CCN1[C@@H]46)[C@@H]32 ?
Out: 19.1

In: Would you kindly repeat that for COc1ccc(-c2nc3cc(Cl)c(Cl)cc3n2CC(=O)N=Nc2c(O)[nH]c3ccc(Br)cc23)cc1 ?
Out: 4.81

In: Would you kindly repeat that for O=C(NNc1nc2cc(F)c(F)cc2n2cccc12)c1cccnn1 ?
Out: 7.06

In: Would you kindly repeat that for COc1cc(NC2=C(Cl)C(=O)c3nc(C)ccc3C2=O)cc(OC)c1 ?
Out: 74.7

More entries:
In: Item under review: COc1cccc(/C=C/C(=O)c2ccc(NC(=O)COc3cccc4cccnc34)cc2)c1 . Reported growth?
Out: 93.2

In: Would you kindly repeat that for O=C1c2c(O)cc(O)cc2O[C@@H](c2ccc(O)cc2)[C@@H]1c1c(O)cc(O)c2c(=O)cc(-c3ccc(O)c(O)c3)oc12 ?
Out: 91.9

In: Would you kindly repeat that for c1cncc(-c2cn3nc(-c4c[nH]c5ccccc45)sc3n2)c1 ?
Out: 72.5

In: Would you kindly repeat that for CC(C)C[C@H]1C(=O)O[C@H](C(C)C)C(=O)N(C)[C@@H](C(C)C)C(=O)O[C@H](C(C)C)C(=O)N(C)[C@@H](C(C)C)C(=O)O[C@H](C(C)C)C(=O)N1C ?
Out: 22.6

In: Would you kindly repeat that for COc1cnc2c(c1)C(=O)c1c-2n(CCCn2ccnc2)c(=O)c2cc(OC)c(OC)cc12 ?
Out: -9.94

In: Would you kindly repeat that for Cn1cc(-c2nn3cc(-c4cccnc4)nc3s2)c2ccccc21 ?
Out: 43.8

In: Would you kindly repeat that for Nc1cc(F)ccc1NC(=O)c1ccc(NC(=O)C/C=C/c2cccnc2)cn1 ?
Out: 49.7

In: Would you kindly repeat that for O=C(Nc1cccc(-c2nc(-c3ccc(NC(=O)c4cccnc4)cc3Cl)no2)c1)Nc1ccc(NC(=O)C2CC2)c(C(F)(F)F)c1 ?
Out: -28

In: Would you kindly repeat that for O=C(/C=C/c1cn(-c2ccccc2)nc1-c1ccc(Cl)cc1)c1cc2ccccc2oc1=O ?
Out: 79.8

In: Would you kindly repeat that for COc1cc(/C=N/n2cnc3oc(-c4ccccc4)cc3c2=N)cc(CN2CCOCC2)c1O ?
Out: 89.9

In: Would you kindly repeat that for Nc1nc(N)c2c(n1)NC(c1ccccc1)CC(c1ccc(Nc3nc(NCCO)nc(Nc4ccc(Cl)cc4)n3)cc1)=N2 (configuration not stated) ?
Out: 92.6
